molecular target: CFTR (Mus musculus, UniProt P26361); construct: from tissue; host or cells: mouse ileum (wildtype CD1 mice); test: Short-circuit current in mouse ileum; settings: forskolin (cAMP-dependent chloride secretion); read-out: concentration for fifty percent inhibition of short-circuit current
Sequence (P26361 whole entry): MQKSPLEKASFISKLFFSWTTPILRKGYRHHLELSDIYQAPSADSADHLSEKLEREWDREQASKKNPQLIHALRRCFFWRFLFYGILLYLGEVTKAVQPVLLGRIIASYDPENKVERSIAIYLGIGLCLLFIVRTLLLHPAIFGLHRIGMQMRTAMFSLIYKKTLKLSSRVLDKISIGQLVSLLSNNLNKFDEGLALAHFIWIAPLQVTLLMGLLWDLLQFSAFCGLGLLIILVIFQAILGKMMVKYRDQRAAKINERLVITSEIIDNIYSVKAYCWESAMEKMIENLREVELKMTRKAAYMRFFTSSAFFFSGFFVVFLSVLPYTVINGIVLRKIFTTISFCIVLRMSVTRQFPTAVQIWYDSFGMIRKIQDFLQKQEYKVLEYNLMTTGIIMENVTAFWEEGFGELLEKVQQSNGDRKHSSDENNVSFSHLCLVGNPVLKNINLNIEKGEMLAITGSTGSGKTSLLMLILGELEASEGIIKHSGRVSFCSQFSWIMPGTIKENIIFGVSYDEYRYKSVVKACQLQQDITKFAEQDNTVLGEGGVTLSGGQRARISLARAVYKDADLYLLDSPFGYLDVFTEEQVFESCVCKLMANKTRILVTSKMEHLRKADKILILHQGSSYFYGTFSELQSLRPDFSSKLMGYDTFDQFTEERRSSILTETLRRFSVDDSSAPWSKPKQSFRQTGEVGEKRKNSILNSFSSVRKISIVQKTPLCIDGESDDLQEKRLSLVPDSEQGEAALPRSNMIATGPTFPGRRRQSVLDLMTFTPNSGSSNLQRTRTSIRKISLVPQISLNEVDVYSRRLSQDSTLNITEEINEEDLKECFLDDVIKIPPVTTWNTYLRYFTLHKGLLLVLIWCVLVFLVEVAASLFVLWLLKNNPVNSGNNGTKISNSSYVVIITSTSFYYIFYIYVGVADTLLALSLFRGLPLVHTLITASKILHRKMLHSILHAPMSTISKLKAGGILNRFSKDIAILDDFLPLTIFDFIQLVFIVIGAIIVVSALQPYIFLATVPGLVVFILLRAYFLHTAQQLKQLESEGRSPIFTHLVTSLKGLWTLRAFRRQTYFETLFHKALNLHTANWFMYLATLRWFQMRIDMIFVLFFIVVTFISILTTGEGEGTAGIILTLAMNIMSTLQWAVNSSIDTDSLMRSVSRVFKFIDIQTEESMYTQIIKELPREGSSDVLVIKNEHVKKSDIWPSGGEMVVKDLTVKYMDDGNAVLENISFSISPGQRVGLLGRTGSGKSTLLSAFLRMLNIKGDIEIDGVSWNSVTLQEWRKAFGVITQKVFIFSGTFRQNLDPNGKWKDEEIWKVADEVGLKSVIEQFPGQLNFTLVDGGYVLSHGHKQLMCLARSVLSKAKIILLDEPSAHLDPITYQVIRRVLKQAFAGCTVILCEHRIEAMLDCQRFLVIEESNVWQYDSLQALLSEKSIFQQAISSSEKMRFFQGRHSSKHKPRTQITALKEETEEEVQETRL
attribute-measured: IC50

Request: Identify the measured IC50 of O=C(O)c1ccc(/C=C2\SC(=S)N(c3cccc(C(F)(F)F)c3)C2=O)cc1 [CFTRinh-172] for CFTR (Mus musculus, UniProt P26361).
Result: ~5 µM

###

experiment: pKa by spectrophotometric pH titration; format: physicochemical; settings: spectrophotometric pH titration
attribute-measured: pKa
Hey, just send me the number, nothing else.

Request: May I ask what pKa has been recorded for O=C(O)c1ccc(/C=C2\SC(=S)N(c3cccc(C(F)(F)F)c3)C2=O)cc1 ?
Result: 5.5

###

target: CFTR (Homo sapiens); assay: Electrophysiological studies in Calu-3 cells; format: cell-based; design: cells that natively express wildtype CFTR, including T84 cells; endogenous in cells; host or cells: T84 colonic epithelial cells (UCSF cell culture facility); conditions: read-out: apparent potency in electrophysiological studies
Sequence (P13569 whole entry): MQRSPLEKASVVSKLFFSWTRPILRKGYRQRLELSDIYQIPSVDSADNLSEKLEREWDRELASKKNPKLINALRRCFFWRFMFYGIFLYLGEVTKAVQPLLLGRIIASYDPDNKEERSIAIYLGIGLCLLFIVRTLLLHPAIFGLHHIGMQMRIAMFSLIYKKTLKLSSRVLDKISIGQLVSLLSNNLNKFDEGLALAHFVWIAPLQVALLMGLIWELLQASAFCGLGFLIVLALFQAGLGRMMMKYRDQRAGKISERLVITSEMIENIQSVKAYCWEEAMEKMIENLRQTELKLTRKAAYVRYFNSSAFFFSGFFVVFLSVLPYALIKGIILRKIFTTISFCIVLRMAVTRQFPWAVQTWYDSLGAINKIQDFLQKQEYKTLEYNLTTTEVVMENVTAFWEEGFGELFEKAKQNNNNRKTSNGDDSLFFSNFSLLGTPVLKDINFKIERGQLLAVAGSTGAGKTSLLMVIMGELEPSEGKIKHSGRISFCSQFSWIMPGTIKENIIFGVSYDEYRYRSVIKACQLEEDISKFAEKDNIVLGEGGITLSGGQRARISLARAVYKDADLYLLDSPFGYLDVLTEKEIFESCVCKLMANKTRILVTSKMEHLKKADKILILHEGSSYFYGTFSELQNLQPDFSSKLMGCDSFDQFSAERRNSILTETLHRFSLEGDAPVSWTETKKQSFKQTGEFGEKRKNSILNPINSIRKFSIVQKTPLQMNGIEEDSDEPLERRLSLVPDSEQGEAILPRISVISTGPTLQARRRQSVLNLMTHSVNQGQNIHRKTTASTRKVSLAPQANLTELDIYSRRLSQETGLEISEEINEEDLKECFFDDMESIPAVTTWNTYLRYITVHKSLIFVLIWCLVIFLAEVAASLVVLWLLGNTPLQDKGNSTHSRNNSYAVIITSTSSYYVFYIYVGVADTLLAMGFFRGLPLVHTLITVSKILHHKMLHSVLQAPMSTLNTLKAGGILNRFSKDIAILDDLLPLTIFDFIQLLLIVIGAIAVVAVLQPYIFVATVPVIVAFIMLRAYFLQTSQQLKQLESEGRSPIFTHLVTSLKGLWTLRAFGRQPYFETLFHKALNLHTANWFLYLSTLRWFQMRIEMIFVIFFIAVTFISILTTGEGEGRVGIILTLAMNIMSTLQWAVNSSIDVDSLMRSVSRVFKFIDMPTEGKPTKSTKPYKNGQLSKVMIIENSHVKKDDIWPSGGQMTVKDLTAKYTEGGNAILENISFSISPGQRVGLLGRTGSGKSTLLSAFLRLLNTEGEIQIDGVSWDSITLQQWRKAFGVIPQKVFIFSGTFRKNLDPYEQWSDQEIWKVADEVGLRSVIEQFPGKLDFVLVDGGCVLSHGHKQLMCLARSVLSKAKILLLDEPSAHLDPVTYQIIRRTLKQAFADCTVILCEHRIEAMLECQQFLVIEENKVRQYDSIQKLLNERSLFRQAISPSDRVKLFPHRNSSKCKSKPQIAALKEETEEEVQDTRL
attribute-measured: pIC50
Quick note: pIC50 means taking -log10 of the concentration in moles per liter.

Request: May I ask what pIC50 has been recorded for O=C(O)c1ccc(/C=C2\SC(=S)N(c3cccc(C(F)(F)F)c3)C2=O)cc1 [CFTRinh-172] ?
Result: 6.30

###

target: wildtype CFTR (Homo sapiens, UniProt P13569); test: YFP fluorescence assay of CFTR-mediated I^− transport in FRT cells; format: cell-based; design: expressed in transfected cells; host or cells: Fischer rat thyroid (FRT) cells; conditions: relative to CFTRinh-172 = 1.0
Sequence (P13569 whole entry): as the sequence (P13569 whole entry) above
attribute-measured: relative potency (CFTR inhibition)
Hey, just send me the number, nothing else.

Record excerpt, results attached:
Request: May I ask what relative potency (CFTR inhibition) has been recorded for O=C1/C(=C/c2ccc([N+](=O)[O-])cc2)SC(=S)N1c1cccc(C(F)(F)F)c1 ?
Result: 0.2

Request: Now the same for O=C(O)c1ccccc1C=C1SC(=S)N(c2ccccc2C(F)(F)F)C1=O [2, 3]
Result: 0.70

---
Request: May I ask what relative potency (CFTR inhibition) has been recorded for O=C(O)c1ccccc1C=C1SC(=S)N(c2ccccc2C(F)(F)F)C1=O [3, 3] ?
Result: 0.90

Request: Now the same for O=C(O)c1ccccc1C=C1SC(=S)N(c2ccccc2C(F)(F)F)C1=O [4, 4]
Result: 0.56

Request: Now the same for O=C(O)c1ccccc1C=C1SC(=S)N(c2ccccc2C(F)(F)F)C1=O [4, 3]
Result: 0.64

Request: Now the same for O=C(O)c1ccccc1C=C1SC(=S)N(c2ccccc2C(F)(F)F)C1=O [2, 4]
Result: 0.66
